- Tested Target: SARS-CoV-2 Spike Protein (RBD) (R319-F541).mFc (SARS-CoV-2)
- Procedure Summary: Luminex beads, supernatant
Endpoint: MFI (MFI)

- mAb10914 (antibody, V domains shown) VH: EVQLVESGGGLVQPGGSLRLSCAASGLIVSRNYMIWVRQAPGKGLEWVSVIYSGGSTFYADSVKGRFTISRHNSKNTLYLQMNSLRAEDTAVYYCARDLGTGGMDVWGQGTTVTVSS VL: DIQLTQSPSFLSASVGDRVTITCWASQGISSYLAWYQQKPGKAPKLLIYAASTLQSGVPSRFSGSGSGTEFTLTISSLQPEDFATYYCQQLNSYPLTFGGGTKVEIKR: 30700
- mAb10935 (antibody, V domains shown) VH: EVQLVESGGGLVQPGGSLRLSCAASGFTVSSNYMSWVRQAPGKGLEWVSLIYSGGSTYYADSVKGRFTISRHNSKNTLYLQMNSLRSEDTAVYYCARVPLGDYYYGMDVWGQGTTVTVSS VL: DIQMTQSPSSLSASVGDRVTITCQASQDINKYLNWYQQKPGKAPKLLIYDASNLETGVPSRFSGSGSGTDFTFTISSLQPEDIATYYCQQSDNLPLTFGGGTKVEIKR: 35900
- mAb10982 (antibody, V domains shown) VH: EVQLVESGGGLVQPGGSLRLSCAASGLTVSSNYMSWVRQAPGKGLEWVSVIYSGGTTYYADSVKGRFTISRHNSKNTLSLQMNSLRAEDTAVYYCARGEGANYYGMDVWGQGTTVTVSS VL: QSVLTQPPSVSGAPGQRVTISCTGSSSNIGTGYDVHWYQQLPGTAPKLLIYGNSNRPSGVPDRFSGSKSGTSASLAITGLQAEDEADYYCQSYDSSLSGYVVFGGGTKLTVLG: 23300
- mAb10971 (antibody, V domains shown) VH: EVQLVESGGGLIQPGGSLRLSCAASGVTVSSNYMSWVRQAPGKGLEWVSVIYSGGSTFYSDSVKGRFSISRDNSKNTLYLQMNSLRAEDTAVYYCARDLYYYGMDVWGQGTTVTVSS VL: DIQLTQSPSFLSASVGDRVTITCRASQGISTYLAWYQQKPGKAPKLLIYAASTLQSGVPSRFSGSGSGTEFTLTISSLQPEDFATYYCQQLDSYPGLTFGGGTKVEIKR: 28700
- mAb10964 (antibody, V domains shown) VH: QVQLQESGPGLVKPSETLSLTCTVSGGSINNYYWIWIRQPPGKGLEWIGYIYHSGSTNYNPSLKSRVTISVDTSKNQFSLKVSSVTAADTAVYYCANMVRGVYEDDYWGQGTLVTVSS VL: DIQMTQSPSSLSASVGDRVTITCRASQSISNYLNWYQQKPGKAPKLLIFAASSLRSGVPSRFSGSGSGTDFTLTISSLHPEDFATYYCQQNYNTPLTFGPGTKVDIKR: 32400
- mAb10921 (antibody, V domains shown) VH: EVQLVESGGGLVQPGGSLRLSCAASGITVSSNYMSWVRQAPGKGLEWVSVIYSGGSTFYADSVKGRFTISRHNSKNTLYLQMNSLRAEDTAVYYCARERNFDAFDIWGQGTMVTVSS VL: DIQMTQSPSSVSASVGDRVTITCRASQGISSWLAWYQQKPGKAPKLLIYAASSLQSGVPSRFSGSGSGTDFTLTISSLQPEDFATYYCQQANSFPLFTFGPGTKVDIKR: 19400
- mAb10939 (antibody, V domains shown) VH: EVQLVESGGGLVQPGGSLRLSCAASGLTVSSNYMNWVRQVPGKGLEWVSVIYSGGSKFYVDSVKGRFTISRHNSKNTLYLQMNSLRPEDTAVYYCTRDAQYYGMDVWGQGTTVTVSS VL: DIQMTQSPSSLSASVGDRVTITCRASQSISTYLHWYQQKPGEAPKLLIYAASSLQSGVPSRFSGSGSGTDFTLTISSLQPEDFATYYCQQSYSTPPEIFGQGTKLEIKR: 33900
- mAb10985 (antibody, V domains shown) VH: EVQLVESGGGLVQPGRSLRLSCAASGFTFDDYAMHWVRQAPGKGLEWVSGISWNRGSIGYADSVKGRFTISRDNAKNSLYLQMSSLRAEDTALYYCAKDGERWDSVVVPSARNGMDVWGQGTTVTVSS VL: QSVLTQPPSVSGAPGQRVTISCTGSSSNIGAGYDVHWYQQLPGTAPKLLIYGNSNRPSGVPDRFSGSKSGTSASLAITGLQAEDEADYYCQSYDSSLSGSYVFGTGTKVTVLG: 29400
- mAb10955 (antibody, V domains shown) VH: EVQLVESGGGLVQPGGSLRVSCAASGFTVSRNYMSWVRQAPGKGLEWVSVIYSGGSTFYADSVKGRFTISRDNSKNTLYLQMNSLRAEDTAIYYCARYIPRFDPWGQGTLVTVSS VL: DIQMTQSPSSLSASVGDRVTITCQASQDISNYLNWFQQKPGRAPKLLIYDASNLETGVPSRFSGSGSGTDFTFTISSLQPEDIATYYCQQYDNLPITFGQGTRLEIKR: 30800
- mAb10920 (antibody, V domains shown) VH: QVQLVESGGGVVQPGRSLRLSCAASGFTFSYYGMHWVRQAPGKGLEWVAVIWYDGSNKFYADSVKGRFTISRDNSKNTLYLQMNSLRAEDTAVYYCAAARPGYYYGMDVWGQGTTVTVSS VL: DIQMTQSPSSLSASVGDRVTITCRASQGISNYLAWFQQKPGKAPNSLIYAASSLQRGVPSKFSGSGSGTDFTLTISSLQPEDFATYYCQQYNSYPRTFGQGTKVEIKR: 36400
